Tested on: MCF7 breast
test: NCI-60 one-dose screen, 48 h (100 = growth as untreated, 0 = no growth, -100 = all killed)
stated conditions: 10 µM unless noted
Compounds without any hit were thinned out: in the full panel of roughly 83,000, 20% have a hit.
Listing of recorded growth by entry.
State just the number; it will be interpreted in %.

See these solved cases before continuing.
Task item: Quickly give me recorded growth for OC[C@@H](O)[C@@H](O)CO
Reply: 99.9

Task item: Quickly give me recorded growth for COc1cccc(Nc2nc(NCCO)c3ccccc3n2)c1
Reply: 76.8

Task item: Quickly give me recorded growth for COc1cc(C2C3=C(COC3=O)N(CCO)c3cc4c(cc32)OCO4)cc(OC)c1O (centres undefined)
Reply: 19.6

---
Task item: Quickly give me recorded growth for Cc1cc(C)c(S(=O)O)c(C)c1
Reply: 109

Task item: Quickly give me recorded growth for COc1cc(/C=C2\C(=O)N(c3c(Cl)cccc3Cl)c3ccccc32)cc(OC)c1O
Reply: 25.3

Task item: Quickly give me recorded growth for COc1cc(/C=N/NC(=O)c2cnn3c2NC(c2ccccc2)C3)ccc1OC1CCCC1 (centres undefined)
Reply: 16.8

Task item: Quickly give me recorded growth for CN1CCN(C)c2cncc(Br)c2C1=O
Reply: 105

Task item: Quickly give me recorded growth for COC(=O)[C@H]1CCCN1C(=O)[C@H]1CCCN1C(=O)[C@@H](Cc1c[nH]c2ccccc12)NC(=S)Nc1cc(C(F)(F)F)cc(C(F)(F)F)c1
Reply: 26.1

Task item: Quickly give me recorded growth for CC(=O)OC[C@]1(C)C=C2C(=O)[C@](C)(O)C3(CC3)C(C)=C2[C@H]1OC(C)=O
Reply: 57.1

====

Test system: MDA-MB-231 breast
test: NCI-60 one-dose screen, 48 h (100 = growth as untreated, 0 = no growth, -100 = all killed)
stated conditions: 10 µM unless noted
This is part of a sample that, as a whole, favours compounds with a hit. Of some 83,000 tested, about 20% had one in any assay.
Listing of recorded growth by entry.
State just the number; it will be interpreted in %.

See these solved cases before continuing.
Task item: Quickly give me recorded growth for O=C1CC(c2ccsc2)c2snc(-c3ccc(Cl)cc3)c2N1 (stereo not given)
Reply: 90

Task item: Quickly give me recorded growth for O=C1C(Cl)=C(NCCCN2CCOCC2)C(=O)c2ccccc21
Reply: 97.3

Task item: Quickly give me recorded growth for CCOc1ccc(/C=N\N2CCCCCC2)cc1OCC
Reply: 77.7

Task item: Quickly give me recorded growth for Clc1ccc2c(c1)C[C@H]1C[C@@H](c3cccs3)N2O1
Reply: 113

Task item: Quickly give me recorded growth for CC[Si](CC)(CC)OC1[C@@H](O[Si](CC)(CC)CC)[C@@H](CNC(=O)NC)O[C@H]1n1cnc2c(NC(=O)Nc3ccccc3)ncnc21 (stereo not given in full)
Reply: 97.4

Task item: Quickly give me recorded growth for COc1ccc(Sc2ccc3[nH]c(=O)nc(N)c3c2)cc1
Reply: 91.5

Task item: Quickly give me recorded growth for COc1ccc2c(c1)c(=O)oc1c(C)c(OCC(C)=O)ccc12
Reply: 114

Task item: Quickly give me recorded growth for CC1=C(C/C=C(\C)CCC[C@H](C)CCC[C@H](C)CCCC(C)C)C(=O)c2ccccc2C1=O
Reply: 106

Task item: Quickly give me recorded growth for O=[N+]([O-])c1ccc2nc(N/N=C/c3ccc(O)cc3)sc2c1
Reply: 82.9

Task item: Quickly give me recorded growth for CN1CCc2c(Sc3ccc(C(=O)NO)cc3)c3ccccc3n2C1
Reply: 8.01

---
Task item: Quickly give me recorded growth for Cc1ccc(S(=O)(=O)N2CCc3ccc(O)c4c3C2CCc2ccccc2-4)cc1 (stereo not given)
Reply: 95.2

Task item: Quickly give me recorded growth for CC(=O)Nc1ccc(S(=O)(=O)N/N=C\c2ccc(Cl)c(Cl)c2)cc1
Reply: 110

Task item: Quickly give me recorded growth for O=C(N/N=C/c1ccc(F)cc1)c1[nH]c2ccc(I)cc2c1-c1ccccc1
Reply: 16.5

Task item: Quickly give me recorded growth for COc1ccc(-c2[nH]ncc2Nc2cc(OC)c(OC)c(OC)c2)cc1
Reply: 53.3
